# PROCEDURE TEXT: Plasma concentration in Sprague-Dawley rat at 10 mg/kg, ip after 60 mins
# Format: ADME, organism-based
# Design: dose 10 mg/kg, route intraperitoneal
Task for the reader: assign each of the following compounds its reported concentration at 1 h.
Numbers only, in ng/mL.

The compound `Cc1c(C(=O)NC2CCN(C(=O)NC(C)(C)C)CC2)nn(-c2ccc(Cl)cc2Cl)c1-c1ccc(Cl)cc1` showed concentration at 1 h equal to 67.4

The compound `Cc1c(C(=O)N2CCC(NC(=O)NC(C)(C)C)(c3ccccc3)CC2)nn(-c2ccc(Cl)cc2Cl)c1-c1ccc(Cl)cc1` showed concentration at 1 h equal to 386

Attention now turns to another entry.
The compound `Cc1c(C(=O)NC2CCN(C(=O)OC(C)(C)C)CC2)nn(-c2ccc(Cl)cc2Cl)c1-c1ccc(Cl)cc1` showed concentration at 1 h equal to 197
